measurement.target: Human LATS2 catalytic domain (Homo sapiens (Human), UniProt Q9NRM7)
Sequence (Q9NRM7 553-1088): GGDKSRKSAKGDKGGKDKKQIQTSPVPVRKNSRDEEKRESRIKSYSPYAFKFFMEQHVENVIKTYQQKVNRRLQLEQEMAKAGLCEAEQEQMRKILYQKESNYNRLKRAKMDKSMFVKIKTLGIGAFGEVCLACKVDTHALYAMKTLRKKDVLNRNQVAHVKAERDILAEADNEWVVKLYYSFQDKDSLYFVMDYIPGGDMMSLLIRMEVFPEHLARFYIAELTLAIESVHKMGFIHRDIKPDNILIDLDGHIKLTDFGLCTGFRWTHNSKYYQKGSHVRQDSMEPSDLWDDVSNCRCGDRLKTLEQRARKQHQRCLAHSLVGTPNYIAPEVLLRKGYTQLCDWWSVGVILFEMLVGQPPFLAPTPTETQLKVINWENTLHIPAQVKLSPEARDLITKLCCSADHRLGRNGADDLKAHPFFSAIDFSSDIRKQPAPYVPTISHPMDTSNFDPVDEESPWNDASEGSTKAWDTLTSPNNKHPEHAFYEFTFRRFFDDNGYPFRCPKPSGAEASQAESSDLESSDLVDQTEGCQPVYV
Sequence (Q7L9L4 whole entry partner, the tested form may be a part): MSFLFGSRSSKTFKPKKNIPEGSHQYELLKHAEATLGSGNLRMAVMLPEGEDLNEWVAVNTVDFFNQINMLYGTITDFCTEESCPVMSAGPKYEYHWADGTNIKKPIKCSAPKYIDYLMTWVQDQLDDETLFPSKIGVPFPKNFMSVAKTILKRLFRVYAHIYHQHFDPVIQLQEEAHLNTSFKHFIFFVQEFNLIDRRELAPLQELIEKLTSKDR
assay.explanation: LATS2 High ATP HTRF Assay
Format: biochemical
test.settings: no asterisk: LATS2 High ATP HTRF Assay, 5000 μM ATP, 0.05 nM LATS2
Method: Human LATS2 catalytic domain which contains the amino acids G553-V1088 (accession NP_055387) was purified in-house. The LATS2 catalytic domain was co-purified with Mob1b (accession NP_775739). […] The HTRF (665 nm/620 nm) signal was read on the Envision plater reader (PerkinElmer). The IC50 values were determined by fitting the % inhibition with a nonlinear four-parameter logistical equation. […]
quantity.measured: pKi
By convention, pKi is the negative base-10 log of a molar concentration.

Return reported pKi; argument: FCC1CC2(CCN(c3nc(-c4ccncc4)nc4cnccc34)CC2)CN1 (racemic)
9.89

Return reported pKi; argument: O[C@H]1CC[C@H]1N1CCC2(CCN(c3nc(-c4ccncc4)nc4cnccc34)CC2)C1 (single isomer, unassigned)
8.73

Return reported pKi; argument: COc1cncc2nc(-c3ccncc3)nc(N3CCC4(CCN(CC(C)(O)C(F)(F)F)C4)CC3)c12 (stereo not shown)
10.02

Return reported pKi; argument: C#CCN1CCC2(CCN(c3nc(-c4ccncc4)nc4cnccc34)CC2)C1
10.00
